# Target Of Assay: HLA-DRB4*01:01/ *01:03 (Homo sapiens, UniProt P01903+P13762, G164S)
# Assay Overview: In vitro competitive peptide binding to purified MHC class II
pIC50: −log10 of the molar value. Where no end group is shown, it is not given here.
Known pIC50 of a selection of sequences

>  <Macromolecule Sequence>
RKIVGAMVQIITYRD [MPO447–461]

>  <pIC50>
6.62

$$$$
>  <Macromolecule Sequence>
PVAATRTAVRAADYL [MPO105–119]

>  <pIC50>
6.06

$$$$
>  <Macromolecule Sequence>
MPELTSMHTLLLREH [MPO409–423]

>  <pIC50>
6.66

$$$$
>  <Macromolecule Sequence>
DQERSLMFMQWGQLL [MPO245–259]

>  <pIC50>
6.42

$$$$
>  <Macromolecule Sequence>
GEKLYQEARKIVGAM [MPO413–427, reference compound]

>  <pIC50>
5.03

$$$$
>  <Macromolecule Sequence>
PILRGLMATPAKLNR [MPO545–559]

>  <pIC50>
7.17

$$$$
>  <Macromolecule Sequence>
PRWDGERLYQEARKIVGAMV [MPO435–454]

>  <pIC50>
6.60

$$$$
>  <Macromolecule Sequence>
IKAVRIYIGDVMRQT [MPO447–461scramble, reference compound]

>  <pIC50>
7.77

$$$$

----------
# Target Of Assay: HLA-DRB1*03:04/ *03:07 (Homo sapiens, UniProt P01903+P01911, A100K/A102G/A103R/A169T/F55Y/I96L/K41T/L162R/M171V/P40S/Q125H/Q178H/Q39Y/R42S/T106N/T262R/W38E/Y61H)
# Assay Overview: In vitro competitive peptide binding to purified MHC class II
Where no end group is shown, it is not given here.
IC50 values by entry
Measured Endpoint: IC50 (µM)

>  <Macromolecule Sequence>
PVAATRTAVRAADYL [MPO105–119]

>  <Measured Endpoint>
IC50

>  <Result Units>
µM

>  <Meas Value>
14.5

$$$$
>  <Macromolecule Sequence>
GEKLYQEARKIVGAM [MPO413–427, reference compound]

>  <Measured Endpoint>
IC50

>  <Result Units>
µM

>  <Meas Value>
31.1

$$$$
>  <Macromolecule Sequence>
MPELTSMHTLLLREH [MPO409–423]

>  <Measured Endpoint>
IC50

>  <Result Units>
µM

>  <Meas Value>
11

$$$$
>  <Macromolecule Sequence>
PILRGLMATPAKLNR [MPO545–559]

>  <Measured Endpoint>
IC50

>  <Result Units>
µM

>  <Meas Value>
32.8

$$$$
>  <Macromolecule Sequence>
DQERSLMFMQWGQLL [MPO245–259]

>  <Measured Endpoint>
IC50

>  <Result Units>
µM

>  <Meas Value>
70

$$$$
>  <Macromolecule Sequence>
RKIVGAMVQIITYRD [MPO447–461]

>  <Measured Endpoint>
IC50

>  <Result Units>
µM

>  <Meas Value>
13.9

$$$$

----------
# Target Of Assay: HLA-DRB5*01:01/ *01:02/ *02:02 (Homo sapiens, UniProt P01903+Q30154)
# Assay Overview: In vitro competitive peptide binding to purified MHC class II
Where no end group is shown, it is not given here.
Consider the cut-off 0.3 µM. If the recorded IC50 is strictly smaller, the label is criterion met; if not, the label is criterion not met.

>  <Macromolecule Sequence>
GEKLYQEARKIVGAM [MPO413–427, reference compound]

>  <Answer Label>
criterion not met

$$$$
>  <Macromolecule Sequence>
DQERSLMFMQWGQLL [MPO245–259]

>  <Answer Label>
criterion not met

$$$$
>  <Macromolecule Sequence>
MPELTSMHTLLLREH [MPO409–423]

>  <Answer Label>
criterion met

$$$$
>  <Macromolecule Sequence>
PVAATRTAVRAADYL [MPO105–119]

>  <Answer Label>
criterion not met

$$$$
>  <Macromolecule Sequence>
RKIVGAMVQIITYRD [MPO447–461]

>  <Answer Label>
criterion not met

$$$$
>  <Macromolecule Sequence>
PILRGLMATPAKLNR [MPO545–559]

>  <Answer Label>
criterion met

$$$$
